This collection of values is drawn from paper PMC3961306.

target: panel of more than 300 wild-type and mutant kinases (313 kinase panel) (Homo sapiens); experiment: Kinase profiling in a biochemical assay panel (mobility shift assays and ELISA), %-inhibition at 1 μM; selectivity entropy; conditions: kinase p70S6K; 1 μM
// %-inhibition of p70S6K lookup, one value per entry

[
  {
    "compound": "COc1cc(Nc2c(C#N)cnc3cc(OCCCN4CCN(C)CC4)c(OC)cc23)c(Cl)cc1Cl",
    "unit.abbrev": "%",
    "%-inhibition of p70S6K": 43
  },
  {
    "compound": "Cc1ccc(Nc2nccc(N(C)c3ccc4c(C)n(C)nc4c3)n2)cc1S(N)(=O)=O",
    "unit.abbrev": "%",
    "%-inhibition of p70S6K": 17
  },
  {
    "compound": "CCCS(=O)(=O)Nc1ccc(F)c(C(=O)c2c[nH]c3ncc(-c4ccc(Cl)cc4)cc23)c1F",
    "unit.abbrev": "%",
    "%-inhibition of p70S6K": 9
  },
  {
    "compound": "COc1cc2nccc(Oc3ccc(NC(=O)C4(C(=O)Nc5ccc(F)cc5)CC4)cc3)c2cc1OC [cabozantinib]",
    "unit.abbrev": "%",
    "%-inhibition of p70S6K": 8
  }
]
